tested on: HeLa cells; experiment: G-CSF expression in HeLa cells (ELISA); type: cell-based, human; parameters: key: the protein production of HeLa is judged by “+,” “+/−” and “−”; the protein production of HeLa is judged by “+,” “+/−” and “−”; the protein production of HeLa is judged by “+,” “+/−” and “−”; details: Table 47 naturally occurring; *** = production seen in cell free translations

[
  {
    "Molecule": "O=c1[nH]cc([C@@H]2O[C@H](CO)[C@@H](O)[C@H]2O)c(=O)[nH]1",
    "Protein (G-CSF; HeLa)": "+"
  },
  {
    "Molecule": "O=c1ccn([C@@H]2O[C@H](CO)[C@@H](O)[C@H]2O)c(=S)[nH]1 [2-thiouridine (s^2U)]",
    "Protein (G-CSF; HeLa)": "+"
  },
  {
    "Molecule": "Nc1nc(=O)n([C@@H]2O[C@H](CO)[C@@H](O)[C@H]2O)cc1C=O",
    "Protein (G-CSF; HeLa)": "−***"
  },
  {
    "Molecule": "O=c1[nH]c(=S)ccn1[C@@H]1O[C@H](CO)[C@@H](O)[C@H]1O [4-thiouridine (s^4U)]",
    "Protein (G-CSF; HeLa)": "+"
  }
]

---

system: human embryonic kidney 293 (HEK293) cells; assay: Toxicity of Nucleoside Triphosphates (NTPs), CYTO TOX-GLO assay; type: cell-based; conditions: human, 4 h, 2.1 uM
Readout: percent of viable cells (%)
State just the number; it will be interpreted in %.

Guide cases for percent of viable cells, answers given:
[
  {
    "Molecule": "O=c1cc[nH]c(=O)[nH]1 [Uracil]",
    "Measured value": 90.90
  },
  {
    "Molecule": "Nc1nc2nc[nH]c2c(=O)[nH]1 [Guanine]",
    "Measured value": 90.60
  },
  {
    "Molecule": "Nc1cc[nH]c(=O)n1 [Cytosine]",
    "Measured value": 90.49
  },
  {
    "Molecule": "Cc1c[nH]c(=O)nc1N [5-methyl cytosine]",
    "Measured value": 91.31
  }
]

# input for lookup
// query Notebook entry, human embryonic kidney 293 (HEK293) cells assay: percent of viable cells of Nc1ncnc2nc[nH]c12 [Adenine] = ?
// result 90.23

---

system: human embryonic kidney 293 (HEK293) cells; assay: Toxicity of Nucleoside Triphosphates (NTPs), CYTO TOX-GLO assay; format: cell-based; conditions: human, 72 h, 210 nM
Readout: percent of viable cells
Kindly report the value followed by its unit.

// query Requested field: percent of viable cells. Item: Nc1nc2nc[nH]c2c(=O)[nH]1
// result 92.19%

// query Requested field: percent of viable cells. Item: Cc1c[nH]c(=O)nc1N
// result 89.97%

// query Requested field: percent of viable cells. Item: Nc1ncnc2nc[nH]c12
// result 92.22%

// query Requested field: percent of viable cells. Item: Nc1cc[nH]c(=O)n1
// result 88.22%

// query Requested field: percent of viable cells. Item: O=c1cc[nH]c(=O)[nH]1
// result 94.50%

---

Reported percent of viable cells by item:
system: human embryonic kidney 293 (HEK293) cells; assay: Toxicity of Nucleoside Triphosphates (NTPs), CYTO TOX-GLO assay; format: cell-based; details: human, 4 h, 2.1 nM
State just the number; it will be interpreted in %.

[
  {
    "Molecule": "Nc1nc2nc[nH]c2c(=O)[nH]1 [Guanine]",
    "Measured value": 93.33
  },
  {
    "Molecule": "Nc1ncnc2nc[nH]c12 [Adenine]",
    "Measured value": 93.48
  },
  {
    "Molecule": "O=c1cc[nH]c(=O)[nH]1 [Uracil]",
    "Measured value": 93.15
  },
  {
    "Molecule": "Cc1c[nH]c(=O)nc1N [5-methyl cytosine]",
    "Measured value": 92.23
  }
]

// query Requested field: percent of viable cells. Item: Nc1cc[nH]c(=O)n1 [Cytosine]
// result 93.34

---

test system: human embryonic kidney 293 (HEK293) cells; test: Toxicity of Nucleoside Triphosphates (NTPs), CYTO TOX-GLO assay; assay type: cell-based; details: human, 24 h, 210 nM
Reported percent of viable cells by item:
State just the number; it will be interpreted in %.

[
  {
    "Given smiles": "Cc1c[nH]c(=O)nc1N",
    "percent of viable cells (%)": 84.71
  },
  {
    "Given smiles": "Nc1nc2nc[nH]c2c(=O)[nH]1",
    "percent of viable cells (%)": 86.35
  },
  {
    "Given smiles": "Nc1cc[nH]c(=O)n1",
    "percent of viable cells (%)": 86.12
  },
  {
    "Given smiles": "O=c1cc[nH]c(=O)[nH]1",
    "percent of viable cells (%)": 86.52
  }
]

# input for lookup
// query Requested field: percent of viable cells. Item: Nc1ncnc2nc[nH]c12
// result 86.94

---

Tested on: human embryonic kidney 293 (HEK293) cells
Test: Toxicity of Nucleoside Triphosphates (NTPs), CYTO TOX-GLO assay
Type: cell-based
Conditions: human, 24 h, 210 uM
Protocol: The cytotoxicity of natural and modified nucleoside triphosphates (NTPs) alone or in combination with other bases, was analyzed in human embryonic kidney 293 (HEK293) cells in the absence of transfection reagent. […] 10 ul of the NTPs outlined in Table 12 were combined with 10 ul of lipid dilution and incubated for 30 minutes to form a complex before 80 ul of the HEK293 cell suspension was added to the NTP complex. […]
Readout: percent of viable cells (%)
State just the number; it will be interpreted in %.

Guide cases for percent of viable cells, answers given:
[
  {
    "Compound": "Nc1cc[nH]c(=O)n1 [Cytosine]",
    "Measured value": 86.33
  },
  {
    "Compound": "Cc1c[nH]c(=O)nc1N [5-methyl cytosine]",
    "Measured value": 85.76
  },
  {
    "Compound": "Nc1ncnc2nc[nH]c12 [Adenine]",
    "Measured value": 87.31
  },
  {
    "Compound": "Nc1nc2nc[nH]c2c(=O)[nH]1 [Guanine]",
    "Measured value": 85.86
  }
]

# input for lookup
// query Requested field: percent of viable cells. Item: O=c1cc[nH]c(=O)[nH]1 [Uracil]
// result 86.48

---

tested on: human embryonic kidney 293 (HEK293) cells; experiment: Toxicity of Nucleoside Triphosphates (NTPs), CYTO TOX-GLO assay; assay type: cell-based; details: human, 4 h, 21 nM
Readout: percent of viable cells (%)
State just the number; it will be interpreted in %.

Guide cases for percent of viable cells, answers given:
[
  {
    "Given smiles": "Nc1nc2nc[nH]c2c(=O)[nH]1",
    "Readout": "percent of viable cells",
    "Measured value": 92.84
  },
  {
    "Given smiles": "O=c1cc[nH]c(=O)[nH]1",
    "Readout": "percent of viable cells",
    "Measured value": 92.90
  }
]

// query Requested field: percent of viable cells. Item: Nc1cc[nH]c(=O)n1
// result 93.11

// query Requested field: percent of viable cells. Item: Cc1c[nH]c(=O)nc1N
// result 91.40

// query Requested field: percent of viable cells. Item: Nc1ncnc2nc[nH]c12
// result 93.21

---

Reported percent of viable cells by item:
system: human embryonic kidney 293 (HEK293) cells; experiment: Toxicity of Nucleoside Triphosphates (NTPs), CYTO TOX-GLO assay; assay type: cell-based; details: human, 4 h, 21 uM
State just the number; it will be interpreted in %.

Guide cases for percent of viable cells, answers given:
[
  {
    "Given smiles": "Nc1nc2nc[nH]c2c(=O)[nH]1",
    "Units label": "%",
    "percent of viable cells": 91.36
  },
  {
    "Given smiles": "Nc1cc[nH]c(=O)n1",
    "Units label": "%",
    "percent of viable cells": 91.41
  }
]

// query Requested field: percent of viable cells. Item: Nc1ncnc2nc[nH]c12
// result 91.20

// query Requested field: percent of viable cells. Item: O=c1cc[nH]c(=O)[nH]1
// result 91.95

// query Requested field: percent of viable cells. Item: Cc1c[nH]c(=O)nc1N
// result 91.16

---

target: wild-type T7 polymerase (Escherichia phage T7); assay: In Vitro Transcription with Wild-Type T7 Polymerase (transcription and capping yield); conditions: Table 47 naturally occurring; luciferase mRNA in vitro transcription, Pass/Fail
Sequence (P00573 whole entry): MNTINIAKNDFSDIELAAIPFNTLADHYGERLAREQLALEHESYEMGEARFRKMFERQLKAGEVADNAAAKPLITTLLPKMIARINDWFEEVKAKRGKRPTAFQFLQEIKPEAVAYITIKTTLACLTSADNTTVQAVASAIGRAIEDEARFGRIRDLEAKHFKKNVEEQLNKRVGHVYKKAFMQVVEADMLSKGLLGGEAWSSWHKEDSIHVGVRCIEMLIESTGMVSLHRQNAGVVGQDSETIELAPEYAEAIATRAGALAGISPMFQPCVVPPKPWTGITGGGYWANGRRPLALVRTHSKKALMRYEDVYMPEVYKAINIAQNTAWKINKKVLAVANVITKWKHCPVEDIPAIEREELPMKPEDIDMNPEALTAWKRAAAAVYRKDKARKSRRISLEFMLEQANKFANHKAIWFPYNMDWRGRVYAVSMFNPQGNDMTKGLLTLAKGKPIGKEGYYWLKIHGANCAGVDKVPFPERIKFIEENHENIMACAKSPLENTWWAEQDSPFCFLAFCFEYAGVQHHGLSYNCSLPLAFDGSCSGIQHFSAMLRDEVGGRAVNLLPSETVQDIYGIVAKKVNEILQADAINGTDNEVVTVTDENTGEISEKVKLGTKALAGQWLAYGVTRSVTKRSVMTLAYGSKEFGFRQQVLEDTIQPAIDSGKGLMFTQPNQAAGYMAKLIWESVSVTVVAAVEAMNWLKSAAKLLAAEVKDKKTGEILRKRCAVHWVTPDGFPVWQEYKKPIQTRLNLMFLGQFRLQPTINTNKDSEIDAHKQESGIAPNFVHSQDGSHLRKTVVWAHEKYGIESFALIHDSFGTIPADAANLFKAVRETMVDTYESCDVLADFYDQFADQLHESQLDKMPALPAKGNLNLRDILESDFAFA
Readout: IVT (Luc)

Guide cases for IVT (Luc), answers given:
[
  {
    "Compound": "O=c1ccn([C@@H]2O[C@H](CO)[C@@H](O)[C@H]2O)c(=S)[nH]1 [2-thiouridine (s^2U)]",
    "Measured value": "Pass"
  },
  {
    "Compound": "Cn1cc([C@@H]2O[C@H](CO)[C@@H](O)[C@H]2O)c(=O)[nH]c1=O",
    "Measured value": "Pass"
  },
  {
    "Compound": "O=c1[nH]cc([C@@H]2O[C@H](CO)[C@@H](O)[C@H]2O)c(=O)[nH]1",
    "Measured value": "Pass"
  },
  {
    "Compound": "Nc1nc(=O)n([C@@H]2O[C@H](CO)[C@@H](O)[C@H]2O)cc1C=O",
    "Measured value": "Pass"
  }
]

# input for lookup
// query Requested field: IVT (Luc). Item: O=c1[nH]c(=S)ccn1[C@@H]1O[C@H](CO)[C@@H](O)[C@H]1O [4-thiouridine (s^4U)]
// result Fail

src = patent US20130123481A1
